# Species: Mus musculus
# test.protocol: Ability to inhibit tumor necrosis factor-alpha (TNF-alpha) production in mouse macrophages stimulated with LPS
# Assay type: functional
pIC50: −log10 of the molar value.
quantity: pIC50

Nc1nc(C2CCN(C(=O)CCc3ccccc3)CC2)c2ccccc2n1 5.20
COc1ccc(CC(=O)N2CCC(c3cc(Cc4ccc(OC)cc4)nc(N)n3)CC2)cc1 5.77
Nc1nc(C2CCNCC2)c2ccccc2n1 4.29
COc1ccc(Cc2cc(C3CCN(C(=O)Cc4ccc5c(c4)OCO5)CC3)nc(N)n2)cc1 5.74
Nc1nc(C2CCN(C(=O)c3ccc4c(c3)OCO4)CC2)c2ccccc2n1 5.35
COc1ccc(Cc2cc(C3CCN(C(=O)c4ccc(Cl)c(Cl)c4)CC3)nc(N)n2)cc1 6.15
COc1ccc(-c2c(C)nc(N)nc2C2CCN(C(=O)c3ccccc3)CC2)cc1 5.01
CC(=O)N1CCC(c2nc(N)nc3ccccc23)CC1 5.44
COc1ccc(Cc2cc(C3CCN(C(=O)c4ccc(Cl)cc4)CC3)nc(N)n2)cc1 6.22
CCCCCCCC(=O)N1CCC(c2cc(Cc3ccc(OC)cc3)nc(N)n2)CC1 5.72
COc1ccc(Cc2cc(C3CCN(C(=O)c4ccc([N+](=O)[O-])cc4)CC3)nc(N)n2)cc1 6.15
COc1ccc(Cc2cc(C3CCN(C(=O)c4cc(OC)cc(OC)c4)CC3)nc(N)n2)cc1 6.00
Cc1cc(C2CCN(C(=O)c3ccccc3)CC2)nc(N)n1 5.05
COc1ccc(Cc2cc(C3CCN(C(=O)Cc4ccc(Cl)cc4)CC3)nc(N)n2)cc1 5.62
COc1ccc(Cc2cc(C3CCN(C(=O)Cc4ccc(Cl)c(Cl)c4)CC3)nc(N)n2)cc1 5.68
Nc1nc(C2CCN(C(=O)c3ccccc3)CC2)c2ccccc2n1 5.85
Nc1nc(C2CCN(C(=O)Cc3ccccc3)CC2)c2ccccc2n1 5.70
Nc1nc(C2CCN(Cc3ccccc3)CC2)c2ccccc2n1 4.80
COc1ccc(Cc2cc(C3CCN(C(=O)c4ccccc4)CC3)nc(N)n2)cc1 5.85
